Test: physchem
Format: physicochemical
From the text: The parent S-[2-[(1-Iminoethyl)amino]ethyl]-2-methyl-L-cysteine molecule has 3 ionizable groups and can exist in 4 ionization states. At low pH, the molecule exists as a +2 charged free acid, with the carboxylic acid, amine and amidine moieties protonated. This is the ionization state for the dihydrochloride salt. As the pH is increased, the carboxylic acid group is the first group to deprotonate, and this produces a net charge on the molecule of +1. […]
property: pKa

Query block: Request the reported pKa associated with `CC(=N)NCCSC[C@](C)(N)C(=O)O`
Result block: ~8.4
